Where do the numbers come from? From patent US20260152527A1.

Can you tell me MC5R IC50 for the items I'm about to list?
Target: human recombinant MC5R (CHO-K1/Ga15 stable cell line, GenScript) (human, UniProt P33032 1-325)
Sequence (P33032 whole entry): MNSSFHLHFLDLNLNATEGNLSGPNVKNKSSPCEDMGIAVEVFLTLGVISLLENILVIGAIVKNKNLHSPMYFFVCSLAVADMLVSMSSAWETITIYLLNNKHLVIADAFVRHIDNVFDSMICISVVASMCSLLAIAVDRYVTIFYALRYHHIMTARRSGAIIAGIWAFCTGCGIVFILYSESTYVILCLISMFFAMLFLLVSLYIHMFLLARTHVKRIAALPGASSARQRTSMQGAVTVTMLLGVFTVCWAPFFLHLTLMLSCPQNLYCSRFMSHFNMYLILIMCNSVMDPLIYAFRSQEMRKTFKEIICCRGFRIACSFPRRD
Assay: cell-based or functional assay
Starred links: 1 amine or outer side, 2 acyl side, 3 side chain; linkers in the order of their positions; H or OH if unused. Positions of bridges follow the written chain, without caps; N, C: chain ends. Non-standard residues stand in square brackets, D forms with d. *: point of attachment. Hgln = homoglutamine, NC(=O)CCC[C@H](N[*:1])C(=O)[*:2]; Benzoyl(3,5-(OH)2) = O=C(c1cc(O)cc(O)c1)*; Lys(N3) = [N-]=[N+]=NCCCC[C@H](N)C(=O)O; dPhe(4-F) = N[C@H](Cc1ccc(F)cc1)C(=O)O; R5 = C=CCCC[C@@](C)(N)C(=O)O; S5 = C=CCCC[C@](C)(N)C(=O)O; Nle = CCCC[C@H](N)C(=O)O; Pra = C#CC[C@H](N)C(=O)O
# unit: nM | format: bare number

For the binder Ac-[Nle][R5]H[dF]RW[S5]-NH2 (staple 2-7; SMILES CCCC[C@H](NC(C)=O)C(=O)N[C@]1(C)CCCC=CCCC[C@@](C)(C(N)=O)NC(=O)[C@H](Cc2c[nH]c3ccccc23)NC(=O)[C@H](CCCNC(=N)N)NC(=O)[C@@H](Cc2ccccc2)NC(=O)[C@H](Cc2c[nH]cn2)NC1=O) [KR-038] , report MC5R IC50.
5090

Please supply the value of reported MC5R IC50 for the item Ac-[Nle][Lys(N3)]H[dF]RW[Pra][Hgln]-NH2 (triazole 2-7; not fully specified; printed as Ac-Nle-[Lys(N3)-His-DPhe-Arg-Trp-Pra]-Hgln-NH2) [KR-057]
107

Answer with the recorded MC5R IC50 for the binder listed here: Ac-[Nle][Lys(N3)]H[dF]RW[Pra]K-NH2 (triazole 2-7) [KR-037]
106

For the binder {Benzoyl(3,5-(OH)2)}-[Nle][Lys(N3)]H[dPhe(4-F)]RW[Pra][Hgln]-NH2 (triazole 2-7; not fully specified; printed as HyBA-Nle-[Lys(N3)-His-Dphe(4-F)-Arg-Trp-Pra]-Hgln-NH2) [KR-071] , give its measured MC5R IC50 value.
73.9

Identify measured MC5R IC50 corresponding to Ac-[Nle]EHFRWGK-NH2 (SMILES CCCC[C@H](NC(C)=O)C(=O)N[C@@H](CCC(=O)O)C(=O)N[C@@H](Cc1c[nH]cn1)C(=O)N[C@@H](Cc1ccccc1)C(=O)N[C@@H](CCCNC(=N)N)C(=O)N[C@@H](Cc1c[nH]c2ccccc12)C(=O)NCC(=O)N[C@@H](CCCCN)C(N)=O) [KR-035]
404

State its MC5R IC50: Ac-[Nle][Pra]H[dF]RW[Lys(N3)]K-NH2 (triazole 2-7; not fully specified; printed as Ac-Nle-[Pra-His-DPhe-Arg-Trp-Lys(N3)]-Lys-NH2) [KR-067]
79.7
